Listed molecules paired with reported AUC
Assay: AUC in rat at 3 mg/kg, po
Type: ADME, organism-based
Settings: in vivo
recorded metric: AUC (µg·h/mL)

- molecule: "Cn1cc(-c2cc3nccnc3c(NCC3CNCC(F)(F)C3)n2)cn1 (racemic)"
  numeric value: 0.216
- molecule: "Cn1cc(-c2cc3nccnc3c(OCC3CNCC(F)(F)C3)n2)cn1 (racemic)"
  numeric value: 0.296
- molecule: "Cn1cc(-c2cc3nccnc3c(OCC3CNCCC3(F)F)n2)cn1 (racemic)"
  numeric value: 0.099

----------
Entries annotated with measured IC50
Target: Voltage-gated inwardly rectifying potassium channel KCNH2 (Homo sapiens)
Sequence (Q12809 whole entry): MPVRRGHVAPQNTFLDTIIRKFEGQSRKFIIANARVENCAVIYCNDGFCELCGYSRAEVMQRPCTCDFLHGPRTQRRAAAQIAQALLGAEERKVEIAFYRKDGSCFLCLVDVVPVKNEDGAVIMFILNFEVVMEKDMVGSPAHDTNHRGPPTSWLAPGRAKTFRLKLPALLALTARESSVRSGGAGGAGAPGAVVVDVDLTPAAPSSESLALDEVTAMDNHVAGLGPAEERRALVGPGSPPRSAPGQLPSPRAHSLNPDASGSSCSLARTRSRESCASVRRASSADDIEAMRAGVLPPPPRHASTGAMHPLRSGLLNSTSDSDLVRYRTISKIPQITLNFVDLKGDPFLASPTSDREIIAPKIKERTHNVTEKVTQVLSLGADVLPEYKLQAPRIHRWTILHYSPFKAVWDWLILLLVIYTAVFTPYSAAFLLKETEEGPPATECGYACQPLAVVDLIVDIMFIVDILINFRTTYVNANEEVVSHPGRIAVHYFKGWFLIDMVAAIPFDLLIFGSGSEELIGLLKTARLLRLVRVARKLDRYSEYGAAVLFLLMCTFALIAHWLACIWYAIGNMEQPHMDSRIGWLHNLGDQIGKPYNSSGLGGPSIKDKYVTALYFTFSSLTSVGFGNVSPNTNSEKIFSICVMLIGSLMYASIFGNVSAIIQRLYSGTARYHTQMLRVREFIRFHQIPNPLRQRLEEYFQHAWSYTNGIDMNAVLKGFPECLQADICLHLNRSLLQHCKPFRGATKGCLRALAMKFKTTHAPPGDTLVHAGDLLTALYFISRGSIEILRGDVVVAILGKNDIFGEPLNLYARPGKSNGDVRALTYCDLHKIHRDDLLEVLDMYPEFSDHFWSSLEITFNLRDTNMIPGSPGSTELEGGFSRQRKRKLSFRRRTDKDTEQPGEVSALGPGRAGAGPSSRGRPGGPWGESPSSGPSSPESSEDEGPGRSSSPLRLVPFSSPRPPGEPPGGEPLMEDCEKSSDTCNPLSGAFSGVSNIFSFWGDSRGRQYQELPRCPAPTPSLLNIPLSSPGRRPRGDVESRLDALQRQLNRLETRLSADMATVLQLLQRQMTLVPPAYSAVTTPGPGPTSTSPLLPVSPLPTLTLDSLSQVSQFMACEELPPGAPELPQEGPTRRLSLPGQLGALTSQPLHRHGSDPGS
Assay: Inhibition of human ERG expressed in CHOK1 cell membranes after 2 hrs by cy3b-dofetilide-based fluorescence polarization assay
recorded metric: IC50 (µM)

- compound: "Cn1cc(-c2cc3nccnc3c(OC[C@H]3CCCNC3)n2)cn1"
  unit tag: "µM"
  sign: ">"
  numeric value: 50.1
- compound: "CN(C)c1ccc(-c2cc3nccnc3c(NCCCCN)n2)cn1"
  unit tag: "µM"
  sign: "="
  numeric value: 39.8
- compound: "CN(C)c1ccc(-c2cc3nccnc3c(NCCCCO)n2)cn1"
  unit tag: "µM"
  sign: "="
  numeric value: 31.6
- compound: "Cc1ccc(-c2cc3ncn(C)c(=O)c3c(NC[C@H]3CCCNC3)n2)cc1"
  unit tag: "µM"
  sign: "="
  numeric value: 25.1
- compound: "c1cnc2c(NC[C@H]3CCCNC3)nc(N3CCNCC3)cc2n1"
  unit tag: "µM"
  sign: ">"
  numeric value: 50.1
- compound: "Cc1ccc(-c2cc3nccnc3c(NC[C@H]3CCCNC3)n2)o1"
  unit tag: "µM"
  sign: "="
  numeric value: 20
- compound: "CN(C)c1ccc(-c2cc3nccnc3c(NCCC(N)=O)n2)cn1"
  unit tag: "µM"
  sign: ">"
  numeric value: 50.1
- compound: "CN(C)c1ccc(-c2cc3ncccc3c(NC[C@H]3CCCNC3)n2)cn1"
  unit tag: "µM"
  sign: ">"
  numeric value: 50.1
- compound: "CN(C)c1ccc(-c2cc3nccnc3c(NC[C@H]3CNCCC3(F)F)n2)cn1"
  unit tag: "µM"
  sign: "="
  numeric value: 20
- compound: "CN(C)c1ccc(-c2cc3nccnc3c(NCC(F)(F)F)n2)cn1"
  unit tag: "µM"
  sign: ">"
  numeric value: 50.1
- compound: "c1cnc2c(NC[C@H]3CCCNC3)nc(-c3cn[nH]c3)cc2n1"
  unit tag: "µM"
  sign: ">"
  numeric value: 50.1
- compound: "Cn1cc(-c2cc3nccnc3c(NCC3CNCC(F)(F)C3)n2)cn1 (racemic)"
  unit tag: "µM"
  sign: ">"
  numeric value: 50.1
- compound: "c1cnc2c(NC[C@H]3CCCNC3)nc(-c3cc[nH]n3)cc2n1"
  unit tag: "µM"
  sign: ">"
  numeric value: 50.1
- compound: "CN(C)c1ccc(-c2cc3nccnc3c(NC[C@H]3CNCCO3)n2)cn1"
  unit tag: "µM"
  sign: ">"
  numeric value: 50.1
- compound: "CN(C)c1ccc(-c2cc3nccnc3c(OC[C@@H]3CCCNC3)n2)cn1"
  unit tag: "µM"
  sign: "="
  numeric value: 12.6
- compound: "CN1CCNC[C@H]1CNc1nc(-c2cnn(C)c2)cc2nccnc12"
  unit tag: "µM"
  sign: ">"
  numeric value: 50.1
- compound: "Cc1ccc(-c2cc3ncncc3c(NC[C@H]3CCCNC3)n2)cc1"
  unit tag: "µM"
  sign: "="
  numeric value: 10
- compound: "CN(C)c1ccc(-c2cc3nccnc3c(OC[C@H]3CCCNC3)n2)cn1"
  unit tag: "µM"
  sign: "="
  numeric value: 10
- compound: "Cn1cc(-c2cc3nccnc3c(NC[C@H]3CCCNC3)n2)cn1"
  unit tag: "µM"
  sign: ">"
  numeric value: 50.1
- compound: "CN1CCNC[C@H]1COc1nc(-c2cnn(C)c2)cc2nccnc12"
  unit tag: "µM"
  sign: ">"
  numeric value: 50.1
- compound: "CN(C)c1ccc(-c2cc3nccnc3c(NCC3CNCC(F)(F)C3)n2)cn1 (racemic)"
  unit tag: "µM"
  sign: ">"
  numeric value: 50.1
- compound: "Cn1cc(-c2cc3nccnc3c(OCC3CNCC(F)(F)C3)n2)cn1 (racemic)"
  unit tag: "µM"
  sign: ">"
  numeric value: 50.1
- compound: "Cn1cc(-c2cc3nccnc3c(NC[C@@H]3CNCCO3)n2)cn1"
  unit tag: "µM"
  sign: ">"
  numeric value: 50.1
- compound: "Cn1cc(-c2cc3nccnc3c(NC[C@@H]3CNCCC3(F)F)n2)cn1"
  unit tag: "µM"
  sign: "="
  numeric value: 25.1
- compound: "Cc1ccc(-c2cc3nccnc3c(NC[C@H]3CCCNC3)n2)s1"
  unit tag: "µM"
  sign: "="
  numeric value: 5.01
- compound: "CN(C)c1ccc(-c2cc3nccnc3c(NC[C@H]3CNCCN3C)n2)cn1"
  unit tag: "µM"
  sign: "="
  numeric value: 15.8
- compound: "Cc1ccc(-c2cc3nc[nH]c(=O)c3c(NC[C@H]3CCCNC3)n2)cc1"
  unit tag: "µM"
  sign: "="
  numeric value: 7.94
- compound: "CN(C)c1ccc(-c2cc3nccnc3c(NC[C@@H]3CNCCN3C)n2)cn1"
  unit tag: "µM"
  sign: ">"
  numeric value: 50.1
- compound: "Cc1ccc(-c2cc3nccnc3c(NCCCCN)n2)cc1"
  unit tag: "µM"
  sign: "="
  numeric value: 15.8
- compound: "CN(C)c1ccc(-c2cc3nccnc3c(NC[C@@H]3CNCCO3)n2)cn1"
  unit tag: "µM"
  sign: ">"
  numeric value: 50.1
